Consider the following compounds and their measured inhibition at 10 µM readings.
- tested-system: 17β-HSD1 (Homo sapiens, UniProt P14061)
- Construct: was measured in intact cell monolayers of T47D and MDA-MB-231 breast cancer cells respectively; endogenous in cells; host or cells: T-47D human breast cancer cells
- assay: 17β-HSD Type I activity in T-47D cells (E1→E2)
- Format: cell-based
- run-parameters: T47D, 10 μM; T-47D cells, E1→E2; read-out: % inhibition of 17β-HSD1 @ 10 μM
measured-metric: inhibition at 10 µM (%)

In [3]: df
Out[3]:
                                   compound      measured_metric  observed_measurement
0  COc1cc2c(cc1OS(N)(=O)=O)CCC1C2CC[C@]2(C)C(=O)C(C#N)CC12 (some centres unmarked)  inhibition at 10 µM                    95
1  CCC(O)C1CC2C3CCc4cc(O)ccc4C3CC[C@]2(C)C1=O (some centres unmarked)  inhibition at 10 µM                    80
2  C[C@]12CCC3c4ccc(O)cc4C(=O)CC3C1Cc1c[nH]nc12 (some centres unmarked)  inhibition at 10 µM                    96
3  C[C@]12CCC3c4ccc(O)cc4CCC3C1C/C(=C\c1ccccn1)C2=O (some centres unmarked)  inhibition at 10 µM                    23
4  C[C@H](NC(=O)CC1CC2C3CCc4cc(O)ccc4C3CC[C@]2(C)C1=O)c1ccccc1 (some centres unmarked)  inhibition at 10 µM                    83
5  C[C@]12CCC3c4ccc(O)cc4CCC3C1CC(C(=O)NCc1ccco1)[C@@H]2O (some centres unmarked)  inhibition at 10 µM                    87
6  CCN(C)C(=O)C1CC2C3CCc4cc(O)ccc4C3CC[C@]2(C)[C@H]1O (some centres unmarked)  inhibition at 10 µM                    79
7  COCCNC(=O)CC1CC2C3CCc4cc(O)ccc4C3CC[C@]2(C)C1=O (some centres unmarked)  inhibition at 10 µM                    53

* * *

- tested-system: 17β-HSD1 (Homo sapiens, UniProt P14061)
- Construct: was measured in intact cell monolayers of T47D and MDA-MB-231 breast cancer cells respectively; endogenous in cells; host or cells: T-47D human breast cancer cells
- assay: 17β-HSD Type I activity in T-47D cells (E1→E2)
- Type: cell-based
- run-parameters: T47D, 10 μM; T-47D cells, E1→E2; read-out: % inhibition of 17β-HSD1 @ 10 μM
Label scheme for inhibition at 10 µM: lower than 80% is class 0, 80% and above is class 1.

                                   molecule  classification
0  C[C@]12CCC3c4ccc(OS(N)(=O)=O)cc4CCC3C1CC(C#N)C2=O (stereo partly shown) [compound 209]         class 0
1  C[C@]12CCC3c4ccc(O)cc4CCC3C1C/C(=C\c1ccc(C#N)cc1)[C@@H]2O (stereo partly shown) [compound 510]         class 0
2  C[C@]12CCC3c4ccc(O)cc4CCC3C1CC1C(C(F)(F)F)=NNC12O (stereo partly shown) [compound 947]         class 1
3  C[C@]12CCC3c4ccc(O)cc4CCC3C1C/C(=C\c1ccncc1)C2=O (stereo partly shown) [compound 321]         class 0
4  COc1cc2c(cc1O)CCC1C2CC[C@]2(C)C(=O)C(CC(=O)NCc3cccnc3)CC12 (stereo partly shown) [compound 1191]         class 1

* * *

- tested-system: 17β-HSD1 (Homo sapiens)
- Construct: was measured in intact cell monolayers of T47D and MDA-MB-231 breast cancer cells respectively; endogenous in cells; host or cells: T-47D human breast cancer cells
- assay: 17β-HSD Type I activity in T-47D cells (E1→E2)
- Type: cell-based
- run-parameters: T47D, 10 μM; T-47D cells, E1→E2; read-out: % inhibition of 17β-HSD1 @ 10 μM
Consider the following compounds and their measured inhibition at 10 µM readings.
measured-metric: inhibition at 10 µM (%)

                                   compound  observed_measurement
0  C[C@]12CCC3c4ccc(OS(N)(=O)=O)cc4CCC3C1C/C(=N/O)C2=O (some centres unmarked)                    47
1  C[C@]12CCC3c4ccc(O)cc4CCC3C1CC(CC(=O)NCC1CCCO1)[C@@H]2O (some centres unmarked)                    63
2  CC(C)(C)/C=C1\CC2C3CCc4cc(O)ccc4C3CC[C@]2(C)[C@H]1O (some centres unmarked)                    84
3  C[C@]12CCC3c4ccc(O)cc4CCC3C1CC(CC(=O)NCC1CCCO1)C2=O (some centres unmarked)                    91
4  C[C@]12CCC3c4ccc(O)cc4CCC3C1Cc1cccnc12 (some centres unmarked)                    78
5  C[C@]12CCC3c4ccc(O)cc4CCC3C1Cc1c2n[nH]c1CO (some centres unmarked)                    94
6  CN(C)c1ccc(/C=C2\CC3C4CCc5cc(O)ccc5C4CC[C@]3(C)[C@H]2O)cc1 (stereo in doubt)                    72
7  C[C@]12CCC3c4ccc(O)cc4CCC3C1Cc1c2n[nH]c1C(=O)NCc1cccnc1 (some centres unmarked)                    92

* * *

- tested-system: 17β-HSD2 (Homo sapiens, UniProt P37059)
- Construct: was measured in intact cell monolayers of T47D and MDA-MB-231 breast cancer cells respectively; endogenous in cells; host or cells: MDA-MB-231 human breast cancer cells
- Sequence (P37059 1-387): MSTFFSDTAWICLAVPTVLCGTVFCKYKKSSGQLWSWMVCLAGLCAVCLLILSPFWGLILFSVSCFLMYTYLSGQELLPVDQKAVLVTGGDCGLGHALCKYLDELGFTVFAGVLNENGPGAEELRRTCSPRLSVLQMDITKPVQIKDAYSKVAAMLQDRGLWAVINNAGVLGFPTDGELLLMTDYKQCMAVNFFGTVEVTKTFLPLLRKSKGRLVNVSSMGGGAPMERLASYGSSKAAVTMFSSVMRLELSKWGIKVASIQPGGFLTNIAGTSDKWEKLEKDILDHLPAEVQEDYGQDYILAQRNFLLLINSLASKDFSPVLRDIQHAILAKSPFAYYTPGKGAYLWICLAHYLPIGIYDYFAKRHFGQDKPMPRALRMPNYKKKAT
- assay: 17β-HSD Type II activity in MDA-MB-231 cells (E2→E1)
- Format: cell-based
- run-parameters: 10 μM; MDA-MB-231 cells, E2→E1; read-out: % inhibition of 17β-HSD2 @ 10 μM
measured-metric: inhibition at 10 µM (%)

                                    compound  observed_measurement
 0  C[C@]12CCC3c4ccc(O)cc4CCC3C1CC(C(=O)O)C2=O (some centres unmarked)                     1
 1  C[C@]12CCC3c4ccc(OS(N)(=O)=O)cc4CCC3C1CC(C#N)C2=O (some centres unmarked)                    18
 2  COCCn1cc2c(n1)[C@@]1(C)CCC3c4ccc(O)cc4CCC3C1C2 (some centres unmarked)                    48
 3  C[C@]12CCC3c4ccc(O)cc4CCC3C1CC(C(=O)NCc1ccncc1)[C@@H]2O (some centres unmarked)                   2.5
 4  C[C@]12CCC3c4ccc(O)cc4CCC3C1C/C(=C\c1cccnc1)[C@@H]2O (some centres unmarked)                    43
 5  C[C@]12CCC3c4ccc(O)cc4CCC3C1CC(C(=O)NCc1ccco1)[C@@H]2O (some centres unmarked)                    -9
 6  C[C@]12CCC3c4ccc(O)cc4CCC3C1CC(C#N)[C@@H]2O (some centres unmarked)                     4
 7  C[C@]12CCC3c4ccc(O)cc4CCC3C1C/C(=C\c1ccccc1)[C@@H]2O (some centres unmarked)                     5
 8  C[C@H](NC(=O)CC1CC2C3CCc4cc(O)ccc4C3CC[C@]2(C)C1=O)c1ccccc1 (some centres unmarked)                    10
 9  C[C@]12CCC3c4ccc(O)cc4CCC3C1CC(C(=O)O)[C@@H]2O (some centres unmarked)                     4
10  CN(C)c1ccc(/C=C2\CC3C4CCc5cc(O)ccc5C4CC[C@]3(C)C2=O)cc1 (some centres unmarked)                    13
11  C[C@]12CCC3c4ccc(O)cc4CCC3C1CC(CC(=O)Nc1nccs1)C2=O (some centres unmarked)                    16
12  C[C@]12CCC3c4ccc(O)cc4C(=O)CC3C1Cc1c[nH]nc12 (some centres unmarked)                    -9
13  C[C@]12CCC3c4ccc(O)cc4CCC3C1Cc1c2n[nH]c1O (some centres unmarked)                     7
14  C[C@]12CCC3c4ccc(O)cc4/C(=N\O)CC3C1CC/C2=N\O (some centres unmarked)                    27
15  C[C@]12CCC3c4ccc(O)cc4CCC3C1C/C(=C\c1ccco1)C2=O (some centres unmarked)                    17
16  C[C@]12CCC3c4ccc(O)cc4CCC3C1Cc1c2n[nH]c1C(=O)O (some centres unmarked)                    -6
17  COc1cc(/C=C2\CC3C4CCc5cc(OS(N)(=O)=O)ccc5C4CC[C@]3(C)[C@H]2O)cc(OC)c1OC (some centres unmarked)                    10
18  C[C@]12CCC3c4ccc(O)cc4CCC3C1CC(CO)[C@@H]2O (some centres unmarked)                    17
19  C[C@]12CCC3c4ccc(O)cc4CCC3C1C/C(=C\c1ccccn1)C2=O (some centres unmarked)                    16
20  COCCNC(=O)CC1CC2C3CCc4cc(O)ccc4C3CC[C@]2(C)C1=O (some centres unmarked)                     8
21  C[C@]12CCC3c4ccc(O)cc4CCC3C1CC(Cc1cccnc1)[C@@H]2O (stereo in doubt)                    11
22  C[C@]12CCC3c4ccc(O)cc4CCC3C1CC(Cc1ccncc1)[C@@H]2O (some centres unmarked)                    37
23  CCOC(=O)CC1CC2C3CCc4cc(O)ccc4C3CC[C@]2(C)[C@H]1O (some centres unmarked)                    18
24  CCN(C)C(=O)C1CC2C3CCc4cc(O)ccc4C3CC[C@]2(C)[C@H]1O (some centres unmarked)                    -6
25  C[C@]12CCC3c4ccc(O)cc4CCC3C1C/C(=N/O)C2=O (some centres unmarked)                     5
26  CCOC(=O)/C(O)=C1\CC2C3CCc4cc(O)ccc4C3CC[C@]2(C)C1=O (some centres unmarked)                     7
27  COC(=O)Cn1cc2c(n1)[C@@]1(C)CCC3c4ccc(O)cc4CCC3C1C2 (some centres unmarked)                    19
28  CC(C)(C)/C=C1\CC2C3CCc4cc(O)ccc4C3CC[C@]2(C)C1=O (some centres unmarked)                    31
